# system: HLA-A*01:01 (Homo sapiens, UniProt P04439, A114D/A174V/A182V/D101N/D185E/E176A/E190D/L180R/Q94H/R68K/S129P/T187R/V100A/V91M/W191G)
# procedureText: In vitro binding of neoantigens to class I MHC (UV peptide exchange, HLA class I ELISA)
# recordedConditions: 100% = same binding affinity as positive control peptide
observationType: Exchange rate with Pos peptide, HLA-A*01:01

Please give measured Exchange rate with Pos peptide, HLA-A*01:01 of the following entry: CYLRRQKRLKCEKQPGA (listed as Homo sapiens) [Neoantigen P60, FOXA1.p.F266L] 3.1%

Give recorded Exchange rate with Pos peptide, HLA-A*01:01. YEAGMTLGGKILFFLFLLLPLSPFSLIF (listed as Homo sapiens) [Neoantigen P87, AR-Intron] 1.1%

Indicate the recorded Exchange rate with Pos peptide, HLA-A*01:01 value for this sequence: MFENGCYLGRQKRFKCE (listed as Homo sapiens) [Neoantigen P61, FOXAl.p.R261G] 1.7%

Kindly indicate its recorded Exchange rate with Pos peptide, HLA-A*01:01. Item: GVPGDSTRRAVRRMNTF [P17] (listed as Homo sapiens) [Neoantigen P17, MSMB-NOCA4] 4.9%
